This collection of values is drawn from ChEMBL document CHEMBL3507680.

Hi there, I'd appreciate the recorded cytotoxicity at 70.5 h for every entry that follows.
Assay: Human HepG2 cell viability assay in 384 well format
Assay type: toxicity, cell-based
Design: dose 125 nL, time 70.5 hour; concentration not given beside the values
Details: HepG2 cells, read-out: Inhibition
Numeric answer only, unit % assumed.

For O=C(c1cnccn1)N1CCC(CN2CCOCC2)CC1 the compound record lists cytotoxicity at 70.5 h as -7.46

For COc1ncccc1C(=O)N1CCC(CNC(C)=O)CC1 the compound record lists cytotoxicity at 70.5 h as -11.5

For CN(C(=O)OC(C)(C)C)C1CCN(C(=O)c2ccc(Cl)o2)C1 (stereo not given) the compound record lists cytotoxicity at 70.5 h as -3.64

For O=C(NCCNC(=O)c1scnc1Cl)c1cccs1 the compound record lists cytotoxicity at 70.5 h as -14.2

For Cc1csc(N2CCN(C3CCc4ccccc4C3)CC2)n1 (stereo not given) the compound record lists cytotoxicity at 70.5 h as 13

For O=S(=O)(NCCSc1nccn1C1CC1)c1ccccc1 the compound record lists cytotoxicity at 70.5 h as -3.08

For Cc1nnc(CN(C)CCCOc2ccc(Cl)cc2)o1 the compound record lists cytotoxicity at 70.5 h as -10.2

For COc1cc(OC)cc(-c2noc(C(N)CCSC)n2)c1 (stereo not given) the compound record lists cytotoxicity at 70.5 h as -2.69

For CC(=O)Nn1ccc2c(nnc3c(-c4ccc(F)cc4)cnn32)c1=O the compound record lists cytotoxicity at 70.5 h as -20.1

For CCCn1c(O)nnc1SCC1OCCc2ccccc21 (stereo not given) the compound record lists cytotoxicity at 70.5 h as -7.64

For COc1cccc(-c2nc(C)c(C(=O)N[C@H](CO)CCSC)s2)c1 the compound record lists cytotoxicity at 70.5 h as -5.73

For CNc1nc(C2CCCN(C(=O)C(C)C)C2)nc2c1CN(C)CC2 (stereo not given) the compound record lists cytotoxicity at 70.5 h as 9.57

For Cc1ccc(C)c(CC(=O)NC2CCCS(=O)(=O)C2)c1 (stereo not given) the compound record lists cytotoxicity at 70.5 h as 6.95

For CCOCC(=O)N1CC(=O)Nc2cc(Br)ccc21 the compound record lists cytotoxicity at 70.5 h as -6.53

For Cc1cnn(C2CN(CCOc3ccccc3C#N)C2)c1 the compound record lists cytotoxicity at 70.5 h as -4.34

For O=C(CN1C(=O)CCCc2sccc21)NC1CCc2nccn2C1 (stereo not given) the compound record lists cytotoxicity at 70.5 h as -1.68

For c1ccc(-c2nnc(CN3CCCC3Cn3cncn3)o2)cc1 (stereo not given) the compound record lists cytotoxicity at 70.5 h as -0.362

For CCN(CCN(C)C)c1nc(CCN)nc2sc(C)c(C)c12 the compound record lists cytotoxicity at 70.5 h as 8.66

For Cc1nc2ncccn2c1C(=O)N1CCc2[nH]cnc2C1 the compound record lists cytotoxicity at 70.5 h as -1.79

For O=C(NC1CCCCC1)c1ccc(Oc2ccc3nncn3n2)cc1 the compound record lists cytotoxicity at 70.5 h as -7.56

For COc1cccc(C(=O)Nc2ccc(OCCC(N)=O)cc2)c1OC the compound record lists cytotoxicity at 70.5 h as -5.04

For CCN(C(=O)CN1CCCC1c1cccs1)c1ccccc1C (stereo not given) the compound record lists cytotoxicity at 70.5 h as 30.3

For Cc1cc(-c2cnc(NC3CCCCC3)nc2-c2ccco2)on1 the compound record lists cytotoxicity at 70.5 h as -9.46

For O=C(N1CCC(OCc2ccccn2)CC1)C1(c2ccc(F)cc2)CC1 the compound record lists cytotoxicity at 70.5 h as -0.41

For Cc1cccc(CN2C(=O)CCC23CCN(Cc2cccn2C)CC3)n1 the compound record lists cytotoxicity at 70.5 h as -3.65

For CCn1ncnc1C1CC(=O)NCc2nc3ccccn3c21 (stereo not given) the compound record lists cytotoxicity at 70.5 h as -3.8

For Fc1ccc(-c2nc(CNCCn3cccn3)cs2)cc1 the compound record lists cytotoxicity at 70.5 h as 0.385

For Cc1ccc(Cl)c(CN2CCC3(CC2)C(C(=O)O)CC(=O)N3C)c1F (stereo not given) the compound record lists cytotoxicity at 70.5 h as -5.82

For Cn1c(=O)c2sccc2n(Cc2ccccc2)c1=O the compound record lists cytotoxicity at 70.5 h as 2.6

For Cc1noc(CN2CCN(Cc3cccs3)CC2)n1 the compound record lists cytotoxicity at 70.5 h as -25.4

For Cc1cc(CNC(=O)NCc2cccs2)no1 the compound record lists cytotoxicity at 70.5 h as -5.03

For Nc1cccnc1N1CCC(c2ccccc2)CC1 the compound record lists cytotoxicity at 70.5 h as 25

For COCCN1CC=C(c2cccc(OC)c2)CC1 the compound record lists cytotoxicity at 70.5 h as 1.42

For COc1cc(CN2CCCCCC2c2cccs2)cc(OC)c1O (stereo not given) the compound record lists cytotoxicity at 70.5 h as -2.15

For O=C(c1c2c(N3CCCC3)ncnc2n2ccccc12)N1CCOCC1 the compound record lists cytotoxicity at 70.5 h as -5.97

For CN(c1ncccc1C#N)C1CCN(CCc2ccccn2)CC1 the compound record lists cytotoxicity at 70.5 h as 13.7

For O=C(NCCNc1ncccn1)C1CC(=O)N(Cc2ccco2)C1 (stereo not given) the compound record lists cytotoxicity at 70.5 h as -4.28

For CCc1nc(CC(=O)Nc2cnn(CC3CCCO3)c2)cs1 (stereo not given) the compound record lists cytotoxicity at 70.5 h as -7.79

For CC(NCc1cnc(C2CCC2)s1)c1ccc(-n2cncn2)cc1 (stereo not given) the compound record lists cytotoxicity at 70.5 h as -5.3

For NC(=O)C1CCN(CCCNC(=O)Nc2nncs2)CC1 the compound record lists cytotoxicity at 70.5 h as -14.5

For CNS(=O)(=O)c1cccc(CNc2ccc(C(F)(F)F)nn2)c1 the compound record lists cytotoxicity at 70.5 h as -3.47

For Cc1ccc(CN2CCOC3(CCCN(C(=O)c4ccco4)C3)C2)o1 (stereo not given) the compound record lists cytotoxicity at 70.5 h as -5.05

For COCC(=O)N1CCC2(CC1)CC(N1CCN(C)CC1)CO2 (stereo not given) the compound record lists cytotoxicity at 70.5 h as 14.5

For CN(C)CCCNC(=O)c1nnsc1-c1ccccc1 the compound record lists cytotoxicity at 70.5 h as -8.68

For CN(Cc1ccc(N(C)C)cc1)C(=O)CS(=O)(=O)c1ccc(Cl)cc1 the compound record lists cytotoxicity at 70.5 h as 17

For Cc1cccc(C)c1NC(=O)c1cccc(N(C)S(C)(=O)=O)c1C the compound record lists cytotoxicity at 70.5 h as -14.1

For Cc1ccc(N2CCCC3(CCCC(=O)N3)C2)nn1 (stereo not given) the compound record lists cytotoxicity at 70.5 h as -5.66

For CCCNC(=O)Cn1c(C)nn(C(C)(C)C)c1=O the compound record lists cytotoxicity at 70.5 h as 9.3

For Cc1ccc(C(=O)NC2CCN(C(C)C)C2)c(=O)[nH]1 (stereo not given) the compound record lists cytotoxicity at 70.5 h as -14.4

For c1nc(N2CCCC2Cn2cncn2)c2sccc2n1 (stereo not given) the compound record lists cytotoxicity at 70.5 h as -4.84

====

Experiment: Human HepG2 cell viability assay in 384 well format
Format: toxicity, cell-based
Design: dose 125 nL, time 70.5 hour; concentration not given beside the values
Conditions: HepG2 cells, read-out: Inhibition
endpoint.label: cytotoxicity at 70.5 h (%)
Numeric answer only, unit % assumed.

For c1ccc(-c2cc(NCCCC3CCOC3)n3nccc3n2)cc1 (stereo unspecified) the molecule record lists cytotoxicity at 70.5 h as -0.688

For CCN(CC)CCN1CCO[C@H]2[C@@H](OCc3ccccn3)CC[C@@H]21 the molecule record lists cytotoxicity at 70.5 h as -4.9

For NC1CCCc2nc(-c3ccccc3)ncc21 (stereo unspecified) the molecule record lists cytotoxicity at 70.5 h as -8.86

For NC(=O)c1csc(C(=O)N2CCCC(n3cccn3)C2)c1 (stereo unspecified) the molecule record lists cytotoxicity at 70.5 h as 1.27

For Cc1cnn(CC2CCCN2C(=O)c2cccc(-n3ccc(C)n3)c2)c1 (stereo unspecified) the molecule record lists cytotoxicity at 70.5 h as -7.87

For O=C(c1cncnc1)N1CCCC(c2nccs2)C1 (stereo unspecified) the molecule record lists cytotoxicity at 70.5 h as -3.47

For CN1CCCN(C(=O)NCc2cccnc2-n2cccn2)CC1 the molecule record lists cytotoxicity at 70.5 h as -0.342

For OC(CN1CCC(c2ccn[nH]2)CC1)c1ccc(F)cc1F (stereo unspecified) the molecule record lists cytotoxicity at 70.5 h as -5.74

For COc1ccc(F)c(-c2ncccc2C(=O)N2C[C@H]3CC[C@@H]2C3)c1 the molecule record lists cytotoxicity at 70.5 h as -9.45

For Cc1nc(-c2ccc(NCCc3ccc(O)cc3)nc2)[nH]c(=O)c1C the molecule record lists cytotoxicity at 70.5 h as 3.42

For Cc1nn2cnnc2c(C)c1CCC(=O)Nc1nc2c(s1)CCC2 the molecule record lists cytotoxicity at 70.5 h as -13
